# Test system: SK-OV-3
# procedureText: NCI tumour cell line growth inhibition, 48 h
The source made the active and inactive calls. Rule as the data show it: active = GI50 up to about 1.1 µM and inactive = higher.
Write down the outcome that applies. Available outcomes: active, inactive

Below are worked cases with known answers.
compound	qualitativeLabel
COc1cc(C2c3cc4c(cc3OC(N3CCCCC3)C2C)OCO4)cc(OC)c1O (centres undefined)	inactive
O=C(CC(C(=O)c1ccsc1)c1ccccc1)c1ccccc1 (centres undefined)	inactive
CCOC(=O)c1cnc(N(C)C)nc1SC(=N)N	inactive
Cc1cc(C)nc(NS(=O)(=O)c2ccc(NC(=O)c3cccc4c(NNc5ccc(S(=O)(=O)N=C(N)N)cc5)c5ccccc5nc34)cc2)n1	inactive

Request: Recorded call for O=C(c1ccc(Cl)cc1)N(C(=O)N1CCCCC1)c1ccccc1 ?
Response: inactive

Request: Outcome? CC[C@@H](/C=C\CCC1(C[C@@H](N)CCC=C(C)C)OCCO1)O[Si](C(C)C)(C(C)C)C(C)C
Response: inactive

Request: What did this assay record as the result for C/C(=N\N=C(/S)N(C)C)c1cccc[n+]1[O-] ?
Response: inactive

Request: What classification did CC(=O)[C@]1(O)Cc2c(O)c3c(c(O)c2C(OC2OC(C)C(O)C(O)C2F)C1)C(=O)c1ccccc1C3=O (some centres undefined) end up with in this test?
Response: active

Request: Returns: the outcome recorded for CC(C)OP(=O)(OC(C)C)C(C(F)(F)F)C(F)(F)F in this assay.
Response: inactive
